Items are presented alongside their recorded log10(EC50).
Target: CCK-B receptors (CHO-CCK) (Homo sapiens, UniProt P32239)
Construct: expressed in transfected cells; host or cells: CHO (CHO-CCK model cells)
Sequence (P32239 1-447): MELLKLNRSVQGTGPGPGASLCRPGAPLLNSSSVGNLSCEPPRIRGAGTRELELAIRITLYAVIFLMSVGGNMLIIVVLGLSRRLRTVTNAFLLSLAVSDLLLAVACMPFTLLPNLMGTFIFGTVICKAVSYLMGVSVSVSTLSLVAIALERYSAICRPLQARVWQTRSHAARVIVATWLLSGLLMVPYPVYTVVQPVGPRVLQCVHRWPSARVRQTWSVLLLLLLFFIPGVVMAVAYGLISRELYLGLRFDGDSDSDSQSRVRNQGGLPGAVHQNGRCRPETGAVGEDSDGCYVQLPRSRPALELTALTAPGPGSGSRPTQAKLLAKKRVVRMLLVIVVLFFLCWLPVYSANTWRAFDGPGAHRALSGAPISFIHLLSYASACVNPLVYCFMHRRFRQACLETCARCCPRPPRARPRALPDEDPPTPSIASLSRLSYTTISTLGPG
Experiment: Calcium flux (Fluo-8) antagonist test on CHO-CCK model cells in presence of CCK8
Format: cell-based
Details: in presence of 10 nM CCK8
Procedure: The compound was formulated to a 10 mM mother liquor with DMSO, and then diluted into a series of 9 concentrations with a 3-fold gradient to form a 1000× stock solution. […] Prepare 1×Fluo-8 analysis buffer: mix 9 mL of HHBS, 1 mL of 10× Pluronic F127 Plus and 20 μL of Fluo-8 thoroughly for later use. • 3. Add Fluo-8 dye working solution to the cell plate, 100 μL/well. […] In the process of incubating cells, the compounds to be detected were prepared with HHBS. • 5. […]
*1 amine or outer side, *2 acyl side, *3 side chain or, on linkers, in order; H or OH if unused. Where a SMILES comes first, the peptide text is derived from it. [ ]: non-standard residue; d: D form. The star is where a group is joined. sY = N[C@@H](Cc1ccc(OS(=O)(=O)O)cc1)C(=O)O; NMeW = CN[C@@H](Cc1c[nH]c2ccccc12)C(=O)O; Phe(3-Br) = N[C@@H](Cc1cccc(Br)c1)C(=O)O; dNMeW = CN[C@H](Cc1c[nH]c2ccccc12)C(=O)O; Fmoc = O=C(OCC1c2ccccc2-c2ccccc21)*; Palmitoyl = CCCCCCCCCCCCCCCC(=O)*; Aoc(2) = CCCCCC[C@H](N)C(=O)O; Ahp(2) = CCCCC[C@H](N)C(=O)O; NMeNle = CCCC[C@H](NC)C(=O)O; Suc = O=C(CCC(=O)[*:2])[*:1]; Nle = CCCC[C@H](N)C(=O)O
value-kind: log10(EC50) (log10 of the value in nM)

molecule	target-under-test	value-kind	measured-result
CSCC[C@H](NC(=O)[C@@H](Cc1c[nH]c2ccccc12)NC(C)=O)C(=O)N[C@@H](CC(=O)O)C(=O)N[C@@H](Cc1cccc(Br)c1)C(N)=O	CCK-B receptors (CHO-CCK) (Homo sapiens, UniProt P32239)	log10(EC50)	1.38
CSCC[C@H](NC(=O)[C@H](Cc1c[nH]c2ccccc12)NC(=O)CNC(=O)[C@H](CCSC)NC(C)=O)C(N)=O [HT-210, Ac-Met-Gly-Trp-Met-NH2] (Ac-MGWM-NH2)	CCK-B receptors (CHO-CCK) (Homo sapiens, UniProt P32239)	log10(EC50)	3.81
CCCC[C@H](NC(=O)[C@@H](Cc1cn(C)c2ccccc12)NC(C)=O)C(=O)N[C@@H](CC(=O)O)C(=O)N[C@@H](Cc1cccc(Br)c1)C(N)=O	CCK-B receptors (CHO-CCK) (Homo sapiens, UniProt P32239)	log10(EC50)	1.76
CCCC[C@H](NC(=O)[C@@H](Cc1c[nH]c2ccccc12)NC(=O)CNC(=O)CCC(=O)O)C(=O)N[C@@H](CC(=O)O)C(=O)N[C@@H](Cc1cccc(Br)c1)C(N)=O [HT-202, (Suc)-Gly-D-Trp-Nle-Asp-Phe(3-Br)-NH2] (Suc-G[dW][Nle]D[Phe(3-Br)]-NH2)	CCK-B receptors (CHO-CCK) (Homo sapiens, UniProt P32239)	log10(EC50)	2.28
CCCC[C@@H](C(=O)N[C@@H](CC(=O)O)C(=O)N[C@@H](Cc1cccc(Br)c1)C(N)=O)N(C)C(=O)[C@H](Cc1c[nH]c2ccccc12)N(C)C(=O)OCC1c2ccccc2-c2ccccc21 [HT-200] (Fmoc-[NMeW][NMeNle]D[Phe(3-Br)]-NH2)	CCK-B receptors (CHO-CCK) (Homo sapiens, UniProt P32239)	log10(EC50)	3.25
CCCCCCCCCCCCCCCC(=O)NCC(=O)N[C@H](Cc1c[nH]c2ccccc12)C(=O)N[C@@H](CCCC)C(=O)N[C@@H](CC(=O)O)C(=O)N[C@@H](Cc1cccc(Br)c1)C(N)=O [HT-203, (Pal)-Gly-D-Trp-Nle-Asp-Phe(3-Br)-NH2] (Palmitoyl-G[dW][Nle]D[Phe(3-Br)]-NH2)	CCK-B receptors (CHO-CCK) (Homo sapiens, UniProt P32239)	log10(EC50)	3.20
CSCC[C@H](NC(=O)[C@H](Cc1ccc(OS(=O)(=O)O)cc1)NC(C)=O)C(=O)NCC(=O)N[C@@H](Cc1c[nH]c2ccccc12)C(N)=O [HT-209, Ac-Tyr(SO3H)-Met-Gly-Trp-NH2] (Ac-[sY]MGW-NH2)	CCK-B receptors (CHO-CCK) (Homo sapiens, UniProt P32239)	log10(EC50)	3.33
CSCC[C@H](NC(=O)[C@H](Cc1c[nH]c2ccccc12)NC(C)=O)C(=O)N[C@@H](CC(=O)O)C(=O)N[C@@H](CCC(=O)O)C(N)=O	CCK-B receptors (CHO-CCK) (Homo sapiens, UniProt P32239)	log10(EC50)	3.22
CCCCCC[C@H](NC(=O)[C@H](Cc1c[nH]c2ccccc12)NC(C)=O)C(=O)N[C@@H](CC(=O)O)C(=O)N[C@@H](Cc1cccc(Br)c1)C(N)=O [HT-259, Ac-D-Trp-Oa-Asp-Phe(3-Br)-NH2] (Ac-W[Aoc(2)]D[Phe(3-Br)]-NH2)	CCK-B receptors (CHO-CCK) (Homo sapiens, UniProt P32239)	log10(EC50)	1.77
CCCCCCCCCCCCCC[C@@H](NC(C)=O)C(=O)N[C@@H](CCCC)C(=O)N[C@@H](CCCCCC)C(=O)N[C@@H](Cc1cccc(Br)c1)C(N)=O	CCK-B receptors (CHO-CCK) (Homo sapiens, UniProt P32239)	log10(EC50)	3.11
CCCC[C@H](NC(=O)[C@@H](Cc1c(C)[nH]c2ccccc12)NC(C)=O)C(=O)N[C@@H](CCC(=O)O)C(=O)N[C@@H](Cc1c(C)[nH]c2ccccc12)C(N)=O	CCK-B receptors (CHO-CCK) (Homo sapiens, UniProt P32239)	log10(EC50)	2.67
CCCCC[C@H](NC(=O)[C@@H](Cc1c[nH]c2ccccc12)N(C)C(=O)OCC1c2ccccc2-c2ccccc21)C(=O)N[C@@H](CC(=O)O)C(=O)N[C@@H](Cc1cccc(Br)c1)C(N)=O [HT-258, Fmoc-(N-Me-Trp)-Pa-Asp-Phe(3-Br)-NH2] (Fmoc-[dNMeW][Ahp(2)]D[Phe(3-Br)]-NH2)	CCK-B receptors (CHO-CCK) (Homo sapiens, UniProt P32239)	log10(EC50)	3.02
CCCCCCC[C@H](NC(=O)[C@H](Cc1c[nH]c2ccccc12)NC(C)=O)C(=O)N[C@@H](CC(=O)O)C(=O)N[C@@H](Cc1cccc(Br)c1)C(N)=O	CCK-B receptors (CHO-CCK) (Homo sapiens, UniProt P32239)	log10(EC50)	3.44
CCCC[C@H](NC(=O)[C@H](Cc1c[nH]c2ccccc12)N(C)C(=O)CNC(=O)OCC1c2ccccc2-c2ccccc21)C(=O)N[C@@H](CC(=O)O)C(=O)N[C@@H](Cc1cccc(Br)c1)C(N)=O	CCK-B receptors (CHO-CCK) (Homo sapiens, UniProt P32239)	log10(EC50)	3.45
CCCC[C@H](NC(=O)[C@@H](Cc1c(C)[nH]c2ccccc12)NC(C)=O)C(=O)N[C@@H](CCC(=O)O)C(=O)N[C@@H](Cc1cccc(Br)c1)C(N)=O	CCK-B receptors (CHO-CCK) (Homo sapiens, UniProt P32239)	log10(EC50)	3.13
CSCC[C@H](NC(=O)[C@@H](Cc1c[nH]c2ccccc12)NC(=O)[C@H](CCC(=O)O)NC(=O)[C@H](CC(C)C)NC(=O)CNC(=O)[C@H](Cc1c[nH]cn1)NC(=O)[C@H](CO)NC(=O)CNC(=O)[C@H](CCCCN)NC(=O)[C@H](CCCNC(=N)N)NC(=O)[C@H](CCCNC(=N)N)NC(=O)[C@H](Cc1c[nH]cn1)NC(=O)[C@H](CCCCN)NC(=O)[C@@H](NC(C)=O)[C@@H](C)O)C(=O)N[C@@H](CC(=O)O)C(=O)N[C@@H](Cc1cccc(Br)c1)C(N)=O [HT-220] (Ac-TKHRRKGSHGLE[dW]MD[Phe(3-Br)]-NH2)	CCK-B receptors (CHO-CCK) (Homo sapiens, UniProt P32239)	log10(EC50)	3.46

Data origin, for the record: patent US20240415918A1
